# Study System: thrombin (Homo sapiens, UniProt P00734)
# Construct: consists of two polypeptide chains of 36 (light chain) and 259 amino acid
# Experimental Details: Thrombin inhibition screen of crude macrocycle reactions (residual thrombin activity, fluorogenic substrate Z-Gly-Gly-Arg-AMC)
# Format: biochemical
# Reported Conditions: 10 µM macrocycle concentration; macrocycles containing acid 14; crude reaction; original screen
Readout Name: % thrombin activity, Original screen (%)

Compound: O=C1CCSSCCNC(=O)[C@@H](Cc2ccc(O)cc2)NC(=O)[C@H]2CCCN(C2)C(=O)[C@H](CCCCNC(=O)c2ccc(Cl)s2)N1 [X D1 B4 y]
Unit Name: %
% thrombin activity, Original screen: 99.9

Compound: CC[C@H](C)[C@@H]1NC(=O)CCNC(=O)C2(CCN(C(=O)c3ccc(Cl)s3)CC2)NC(=O)CCSSCCNC1=O
Unit Name: %
% thrombin activity, Original screen: 104.4

Compound: CC(C)C[C@@H]1NC(=O)C2(CC2)CNC(=O)CNC(=O)[C@@H](NC(=O)c2ccc(Cl)s2)CSSCCNC1=O
Unit Name: %
% thrombin activity, Original screen: 109.3

[A] O=C1CCSSCCNC(=O)C(CNC(=O)c2ccc(Cl)s2)NC(=O)C(Cc2ccccc2)NC(=O)c2ccc(cc2)CN1 (stereo not shown)
[B] O=C1CCNC(=O)[C@@H](NC(=O)c2ccc(Cl)s2)CSSCCNC(=O)[C@@H](CO)NC(=O)CN1
Ask | Which of the two gives a bigger number for % thrombin activity, Original screen: A or B ? I would appreciate it if you answered with the label of your choice.
Reply | B
(B: 112.4%, A: 62.7%)

[1] CC(C)C[C@@H]1NC(=O)c2ccc(cc2)CNC(=O)CCSSCCNC(=O)C2(CCN(C(=O)c3ccc(Cl)s3)CC2)NC1=O
[2] NC(=O)CC[C@@H]1NC(=O)C2(CCN(C(=O)c3ccc(Cl)s3)CC2)NC(=O)c2cccc(c2)CNC(=O)CCSSCCNC1=O
Ask | Thinking about recorded % thrombin activity, Original screen values, which is higher, 1 or 2 ? Kindly give the label for the entry you pick.
Reply | 1
(1: 91.2%, 2: 54.9%)

---

# Study System: MDM2 (Homo sapiens)
# Sequence (Q00987 whole entry): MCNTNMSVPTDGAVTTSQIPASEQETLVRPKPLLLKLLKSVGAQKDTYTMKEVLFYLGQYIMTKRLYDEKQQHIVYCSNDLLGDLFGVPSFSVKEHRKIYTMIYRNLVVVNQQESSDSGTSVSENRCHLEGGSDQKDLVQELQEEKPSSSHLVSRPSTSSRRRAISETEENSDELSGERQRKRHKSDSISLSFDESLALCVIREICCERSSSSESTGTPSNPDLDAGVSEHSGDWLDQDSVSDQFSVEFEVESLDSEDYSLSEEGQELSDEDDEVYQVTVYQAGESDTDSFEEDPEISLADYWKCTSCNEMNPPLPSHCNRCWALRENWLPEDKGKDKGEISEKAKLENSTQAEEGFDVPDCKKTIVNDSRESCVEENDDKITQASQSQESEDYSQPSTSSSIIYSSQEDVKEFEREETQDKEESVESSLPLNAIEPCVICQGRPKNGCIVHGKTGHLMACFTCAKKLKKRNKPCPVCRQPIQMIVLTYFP
# Experimental Details: MDM2 binding screen: displacement of fluorescent p53 peptide probe FP53 (fluorescence polarization)
# Reported Conditions: Acid 14; replicate; crude macrocycle reactions
Numbered stars: 1 amine (or outer) side, 2 acyl side, 3 side chain; on linkers, the order of the positions; unused ones are H or OH. Bridge positions count the residues as written; N and C are the ends. Square brackets hold non-standard residues; d marks the D form. Peptide text beside a SMILES is read from it. * marks the point of attachment. Pro(4S-NHCO(5-Cl-2-thienyl)) = O=C(N[C@@H]1CN[C@H](C(=O)O)C1)c1ccc(Cl)s1; 2Thenoyl(5-Cl) = O=C(c1ccc(Cl)s1)*; Cysteamide = C(CS[*:3])N[*:1]; Dap = NC[C@H](N)C(=O)O; Mpa = O=C(O)CCS
Readout Name: fraction fluorescent probe displaced, Replicate

Molecule: O=C1CCSSCCNC(=O)C(Cc2c[nH]c3ccccc23)NC(=O)C2CN(C(=O)c3ccc(Cl)s3)CCN2C(=O)CCN1 (centres unmarked)
Numeric Readout: 0.07

Molecule: O=C1CCSSCCNC(=O)C2(CCN(C(=O)c3ccc(Cl)s3)CC2)NC(=O)C(Cc2c[nH]c3ccccc23)NC(=O)c2cccc(c2)CN1 (centres unmarked)
Numeric Readout: 0.33

Molecule: O=C1CCSSCCNC(=O)[C@@H]2CCCN2C(=O)[C@@H]2C[C@H](NC(=O)c3ccc(Cl)s3)CN2C(=O)[C@H](Cc2ccccc2)N1 [X F D5 B1 Acid 14] ([Mpa]F[Pro(4S-NHCO(5-Cl-2-thienyl))]P-Cysteamide; disulfide 1-C)
Numeric Readout: 0.0465

Molecule: O=C1CCNC(=O)C2(CCN(C(=O)c3ccc(Cl)s3)CC2)NC(=O)CCSSCCNC(=O)[C@H](Cc2ccccc2)N1
Numeric Readout: 0.0465

Molecule: O=C1NCCSSCCC(=O)N2CC(NC(=O)c3ccc(Cl)s3)CC2C(=O)NC(Cc2c[nH]c3ccccc23)C(=O)NCc2cccc1c2 (centres unmarked)
Numeric Readout: 0.0211

Molecule: O=C1N[C@@H](Cc2c[nH]c3ccccc23)C(=O)NC2(CCN(C(=O)c3ccc(Cl)s3)CC2)C(=O)NCCSSCCC(=O)N2CCC[C@H]1C2
Numeric Readout: 0.22

[a] O=C1CCSSCCNC(=O)[C@H](CNC(=O)c2ccc(Cl)s2)NC(=O)[C@H](Cc2ccccc2)NC(=O)c2cccc(c2)CN1
[b] O=C1CCSSCCNC(=O)[C@@H]2CCCN2C(=O)[C@H](CNC(=O)c2ccc(Cl)s2)NC(=O)[C@H](Cc2ccccc2)N1 [X F D3 B1 Acid 14] ([Mpa]F[Dap](2Thenoyl(5-Cl))P-Cysteamide; disulfide 1-C)
[c] O=C1CCSSCCNC(=O)[C@H](CNC(=O)c2ccc(Cl)s2)NC(=O)[C@@H]2CCCN2C(=O)[C@H](Cc2c[nH]c3ccccc23)N1 [X W B1 D3 Acid 14] ([Mpa]WP[Dap](2Thenoyl(5-Cl))-Cysteamide; disulfide 1-C)
[d] O=C1CCSSCCNC(=O)[C@@H]2C[C@H](NC(=O)c3ccc(Cl)s3)CN2C(=O)[C@H](Cc2c[nH]c3ccccc23)NC(=O)CCN1
[e] O=C1NCCSSCCC(=O)N2CCN(C(=O)c3ccc(Cl)s3)CC2C(=O)N2CCCC2C(=O)NC1Cc1c[nH]c2ccccc12 (centres unmarked)
Ask | Put the items in order so that reported fraction fluorescent probe displaced, Replicate rises from first to last. Please express your ranking as an ordered list of the labels.
Reply | a, e, b, d, c

---

# Study System: MDM2 (Homo sapiens)
# Experimental Details: MDM2 binding screen: displacement of fluorescent p53 peptide probe FP53 (fluorescence polarization)
# Reported Conditions: Acid 25; initial screen; crude macrocycle reactions
Numbered stars: 1 amine (or outer) side, 2 acyl side, 3 side chain; on linkers, the order of the positions; unused ones are H or OH. Bridge positions count the residues as written; N and C are the ends. Square brackets hold non-standard residues; d marks the D form. Peptide text beside a SMILES is read from it. * marks the point of attachment. Benzoyl(4-Cl) = O=C(c1ccc(Cl)cc1)*; Cysteamide = C(CS[*:3])N[*:1]; Dap = NC[CH](N)C(=O)O; Mpa = O=C(O)CCS
Readout Name: fraction fluorescent probe displaced, Screen

Compound: O=C1CCNC(=O)C2CN(C(=O)c3ccc(Cl)cc3)CCN2C(=O)C(Cc2c[nH]c3ccccc23)NC(=O)CCSSCCN1 (stereo not shown)
Numeric Readout: 0.19

Compound: O=C1CCSSCCNC(=O)[C@H]2CCCN(C2)C(=O)[C@H](CNC(=O)c2ccc(Cl)cc2)NC(=O)[C@H](Cc2ccccc2)N1
Numeric Readout: 0.12

Compound: O=C1CCSSCCNC(=O)C(CNC(=O)c2ccc(Cl)cc2)NC(=O)C2CCCN2C(=O)C(Cc2ccccc2)N1 (stereo not shown) [X F B1 D3 Acid 25] ([Mpa]FP[Dap](Benzoyl(4-Cl))-Cysteamide; disulfide 1-C; configuration not given here)
Numeric Readout: 0.12

[P] O=C1CCSSCCNC(=O)C(Cc2c[nH]c3ccccc23)NC(=O)C2CN(C(=O)c3ccc(Cl)cc3)CCN2C(=O)CCN1 (mixture of isomers)
[Q] O=C1NC(Cc2c[nH]c3ccccc23)C(=O)NCCSSCCC(=O)N2CCN(C(=O)c3ccc(Cl)cc3)CC2C(=O)NCc2cccc1c2 (stereo not shown)
Ask | Returns: the label, P or Q , whose recorded fraction fluorescent probe displaced, Screen is the lower number. // respond with label for picked entry
Reply | P
(P: 0.15, Q: 0.22)

---

# Study System: thrombin (Homo sapiens, UniProt P00734)
# Construct: consists of two polypeptide chains of 36 (light chain) and 259 amino acid
# Experimental Details: Thrombin inhibition screen of crude macrocycle reactions (residual thrombin activity, fluorogenic substrate Z-Gly-Gly-Arg-AMC)
# Type: biochemical
# Reported Conditions: 10 µM macrocycle concentration; macrocycles containing acid 14; crude reaction; original screen
# Description: As a proof-of-concept, we screened the macrocycle library for inhibitors against thrombin, which is the central blood coagulation protease and an important therapeutic target. We conducted the screen for thrombin-inhibiting macrocycles in 384-well reaction plates. Briefly, each well contained a unique macrocycle (10 μM), 5 μL of thrombin (2 nM final conc.), and subsequently, 5 µL of a fluorogenic substrate to measure the residual thrombin activity and the extent of protease inhibition. […]
Numbered stars: 1 amine (or outer) side, 2 acyl side, 3 side chain; on linkers, the order of the positions; unused ones are H or OH. Bridge positions count the residues as written; N and C are the ends. Square brackets hold non-standard residues; d marks the D form. Peptide text beside a SMILES is read from it. * marks the point of attachment. 2Thenoyl(5-Cl) = O=C(c1ccc(Cl)s1)*; Cysteamide = C(CS[*:3])N[*:1]; Api = NC1(C(=O)O)CCNCC1; Orn = NCCC[CH](N)C(=O)O; Dap = NC[C@H](N)C(=O)O; Mpa = O=C(O)CCS
Readout Name: % thrombin activity, Original screen (%)

// known answers, use as guide
Compound: CC[C@H](C)[C@@H]1NC(=O)CCSSCCNC(=O)[C@H](CNC(=O)c2ccc(Cl)s2)NC(=O)[C@@H]2CCCN2C1=O [X I B1 D3] ([Mpa]IP[Dap](2Thenoyl(5-Cl))-Cysteamide; disulfide 1-C)
Unit Name: %
% thrombin activity, Original screen: 91.3
//
Compound: O=C1CCSSCCNC(=O)[C@H](Cc2ccccc2)NC(=O)[C@H]2CCCN(C2)C(=O)[C@H](CNC(=O)c2ccc(Cl)s2)N1 [X D3 B4 F]
Unit Name: %
% thrombin activity, Original screen: 66.8
//
Compound: CC[C@H](C)[C@@H]1NC(=O)[C@H](CNC(=O)c2ccc(Cl)s2)NC(=O)CCSSCCNC(=O)c2ccc(cc2)CNC1=O [X D3 I B3]
Unit Name: %
% thrombin activity, Original screen: 87.6
//
Compound: C[C@H]1NC(=O)CCSSCCNC(=O)[C@H](CCCCNC(=O)c2ccc(Cl)s2)NC(=O)CCNC1=O [X a B2 D1]
Unit Name: %
% thrombin activity, Original screen: 95.2
//
Compound: C[C@H]1NC(=O)[C@H](CCCNC(=O)c2ccc(Cl)s2)NC(=O)CCSSCCNC(=O)CCNC1=O [X D2 a B2]
Unit Name: %
% thrombin activity, Original screen: 108.5
//
Compound: CCC(C)C1NC(=O)C(CCCNC(=O)c2ccc(Cl)s2)NC(=O)CCSSCCNC(=O)C2CCCN2C1=O (centres unmarked) [X D2 I B1] ([Mpa][Orn](2Thenoyl(5-Cl))IP-Cysteamide; disulfide 1-C; configuration not given here)
Unit Name: %
% thrombin activity, Original screen: 96.9
//
Compound: O=C1CCSSCCNC(=O)C2CCCN2C(=O)C2(CCN(C(=O)c3ccc(Cl)s3)CC2)NC(=O)C(CO)N1 (centres unmarked) [X s D6 B1] ([Mpa]S[Api](2Thenoyl(5-Cl))P-Cysteamide; disulfide 1-C; configuration not given here)
Unit Name: %
% thrombin activity, Original screen: 97.6
//
Compound: O=C1CCSSCCNC(=O)[C@H](Cc2cnc[nH]2)NC(=O)c2cccc(c2)CNC(=O)[C@H](CCCNC(=O)c2ccc(Cl)s2)N1 [X D2 B5 H]
Unit Name: %
% thrombin activity, Original screen: 93.0

[1] CC[C@H](C)[C@@H]1NC(=O)c2ccc(cc2)CNC(=O)[C@@H](NC(=O)c2ccc(Cl)s2)CSSCCNC(=O)CNC1=O [C B3 I G]
[2] O=C1CCSSCCNC(=O)[C@H](CNC(=O)c2ccc(Cl)s2)NC(=O)C2(CC2)CNC(=O)[C@H](Cc2c[nH]c3ccccc23)N1 [X W B6 D3]
Ask | Between the entries labeled 1 and 2 , whose measured % thrombin activity, Original screen is lower? Please respond with the label that marks your chosen entry.
Reply | 2
(2: 65.4%, 1: 106.0%)
